- system tested: Sushi domains (SD1/2) protein
- method: Fluorescence polarization (FP) competition assay with AJAP-1probe, calculated Ki
- Assay type: binding
- measurement context: Table 12, deep mutational scanning validation variants of PIANPWT; read-out: Ki (nM) mean ± SEM
Residues, ends and D or L forms follow the SMILES beside them.
Rule: measured Ki below 400 nM gets MET; anything equal to or greater than 400 nM gets NOT MET.

Below, 4 compounds whose answers are already recorded.
>>> qualitative_label("CC[C@H](C)[C@H](NC(=O)[C@H](Cc1ccccc1)NC(=O)[C@H](Cc1c[nH]c2ccccc12)NC(=O)[C@@H]1CCCN1C(C)=O)C(=O)N[C@H](C(=O)N[C@@H](Cc1c[nH]c2ccccc12)C(=O)NCC(=O)N1CCC[C@H]1C(=O)N[C@H](C(=O)N[C@H](C(=O)N[C@@H](CO)C(=O)N[C@@H](CCCNC(=N)N)C(=O)N[C@@H](CCC(=O)O)C(=O)N[C@@H](CC(=O)O)C(N)=O)C(C)C)[C@@H](C)O)C(C)C [PWFIVWGPTVSRED] (Ac-PWFIVWGPTVSRED-NH2)")
"NOT MET"
>>> qualitative_label("CC[C@H](C)[C@H](NC(=O)[C@H](C)NC(=O)[C@H](Cc1c[nH]c2ccccc12)NC(=O)[C@@H]1CCCN1C(C)=O)C(=O)N[C@H](C(=O)N[C@@H](Cc1c[nH]c2ccccc12)C(=O)NCC(=O)N1CCC[C@H]1C(=O)N[C@H](C(=O)N[C@H](C(=O)N[C@@H](CO)C(=O)N[C@@H](CC(=O)O)C(=O)N[C@@H](CCC(=O)O)C(=O)N[C@@H](CC(=O)O)C(N)=O)C(C)C)[C@@H](C)O)C(C)C [PWAIVWGPTVSDED] (Ac-PWAIVWGPTVSDED-NH2)")
"MET"
>>> qualitative_label("CC[C@H](C)[C@H](NC(=O)[C@@H](NC(=O)[C@H](Cc1c[nH]c2ccccc12)NC(=O)[C@@H]1CCCN1C(C)=O)C(C)C)C(=O)N[C@H](C(=O)N[C@@H](Cc1c[nH]c2ccccc12)C(=O)NCC(=O)N1CCC[C@H]1C(=O)N[C@H](C(=O)N[C@H](C(=O)N[C@@H](CO)C(=O)N[C@@H](CCCNC(=N)N)C(=O)N[C@@H](CCC(=O)O)C(=O)N[C@@H](CC(=O)O)C(N)=O)C(C)C)[C@@H](C)O)C(C)C [PWVIVWGPTVSRED] (Ac-PWVIVWGPTVSRED-NH2)")
"MET"
>>> qualitative_label("CC[C@H](C)[C@H](NC(=O)[C@H](C)NC(=O)[C@H](Cc1c[nH]c2ccccc12)NC(=O)[C@@H]1CCCN1C(C)=O)C(=O)N[C@H](C(=O)N[C@@H](Cc1c[nH]c2ccccc12)C(=O)NCC(=O)N1CCC[C@H]1C(=O)N[C@H](C(=O)N[C@@H](CC(=O)O)C(=O)N[C@@H](CO)C(=O)N[C@@H](CCCNC(=N)N)C(=O)N[C@@H](CCC(=O)O)C(=O)N[C@@H](CC(=O)O)C(N)=O)[C@@H](C)O)C(C)C [PWAIVWGPTDSRED] (Ac-PWAIVWGPTDSRED-NH2)")
"NOT MET"

Hello, I'm reviewing records and need to know if Ki of CC[C@H](C)[C@H](NC(=O)[C@H](C)NC(=O)[C@H](Cc1c[nH]c2ccccc12)NC(=O)[C@@H]1CCCN1C(C)=O)C(=O)N[C@H](C(=O)N[C@@H](Cc1c[nH]c2ccccc12)C(=O)NCC(=O)N1CCC[C@H]1C(=O)N[C@H](C(=O)N[C@H](C(=O)N[C@@H](CC(=O)O)C(=O)N[C@@H](CCCNC(=N)N)C(=O)N[C@@H](CCC(=O)O)C(=O)N[C@@H](CC(=O)O)C(N)=O)C(C)C)[C@@H](C)O)C(C)C [PWAIVWGPTVDRED] (Ac-PWAIVWGPTVDRED-NH2) is below 400 nM. Could you check?
MET
